This collection of values is drawn from paper PMC5331433.

System: rice (Oryza sativa) seeds, radicle
TEST: Inhibition of radicle elongation of rice seeds
CONDITION_DETAILS: 100 µg/mL; 48 h, 25 °C, dark; mean of triplicate ± SD
OUTCOME_MEASURE: Inhibition Ratio (%) Seed Radicle Var. Zhonghua 11 (a %)

[
  {
    "COMPOUND": "CC[C@@]1(C)Oc2cc(ccc2O)[C@@H](O)[C@H](NC)C(=O)N[C@@H](C(C)C)C(=O)N[C@@H]1C(=O)NCC(=O)O",
    "TEST_VALUE": 90.79
  },
  {
    "COMPOUND": "CC[C@@]1(C)Oc2cc(c([S+]([O-])CCO)cc2O)[C@@H](O)[C@H](NC)C(=O)N[C@@H](C(C)C)C(=O)N[C@@H]1C(=O)NCC(=O)O (stereo partly drawn)",
    "TEST_VALUE": 90.16
  },
  {
    "COMPOUND": "CC[C@@]1(C)Oc2cc(c([S+]([O-])C[C@@H](O)C[C@H](N)C(=O)O)cc2O)[C@@H](O)[C@H](NC)C(=O)N[C@@H](C(C)C)C(=O)N[C@@H]1C(=O)NCC(=O)O (stereo partly drawn)",
    "TEST_VALUE": 93.72
  }
]
